target: IRAK4 (Homo sapiens, UniProt Q9NWZ3); construct: Degradation of IRAK4 in OCI-LY10 was quantitatively measured using Meso Scale Discovery technology; endogenous in cells; host or cells: OCI-LY10; assay: IRAK4 MSD Degradation in OCI-LY10; assay type: cell-based; details: OCI-LY10 cells, 24 hrs incubation, MSD; read-out: IRAK4 degradation in OCI-LY10 at 24 hrs: DC50
Sequence (Q9NWZ3 whole entry): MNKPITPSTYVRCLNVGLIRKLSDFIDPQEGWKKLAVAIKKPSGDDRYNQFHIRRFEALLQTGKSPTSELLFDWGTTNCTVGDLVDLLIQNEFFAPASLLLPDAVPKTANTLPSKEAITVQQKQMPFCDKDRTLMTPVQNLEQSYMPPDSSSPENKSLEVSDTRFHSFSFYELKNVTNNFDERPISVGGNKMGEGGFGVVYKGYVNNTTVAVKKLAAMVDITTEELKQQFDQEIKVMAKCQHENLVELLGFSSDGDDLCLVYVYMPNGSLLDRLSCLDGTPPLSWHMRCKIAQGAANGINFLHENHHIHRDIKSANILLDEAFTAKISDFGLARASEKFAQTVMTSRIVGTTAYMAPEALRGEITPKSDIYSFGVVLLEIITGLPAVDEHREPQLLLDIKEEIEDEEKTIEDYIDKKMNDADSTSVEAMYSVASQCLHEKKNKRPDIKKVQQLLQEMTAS
DC50 values, listed per item

Known DC50 results, listed for orientation:
Value lookup for DC50; key = Cn1c(=O)n(C2CCC(=O)NC2=O)c2cccc(N3CC(CN4CCN(C[C@H]5CC[C@H](n6cc(NC(=O)c7cnn8ccc(N9C[C@H]%10C[C@@H]9CO%10)nc78)c(C(F)F)n6)CC5)CC4)C3)c21 (some centres unmarked) [I-748]
> 0.2 µM

Value lookup for DC50; key = Cn1c(=O)n(C2CCC(=O)NC2=O)c2cccc(OC3CCN([C@H]4CC[C@H](n5cc6cc(NC(=O)c7cccc(C(F)(F)F)n7)ncc6n5)CC4)CC3)c21 (some centres unmarked) [I-740]
< 0.01 µM

---
Value lookup for DC50; key = O=C1CCN(c2ccc(C#CCN3CCN(C[C@H]4CC[C@@H](n5cc(NC(=O)c6cnn7ccc(N8C[C@@H]9C[C@H]8CO9)nc67)c(C(F)F)n5)CC4)CC3)cc2)C(=O)N1 [I-124]
> 0.2 µM

Value lookup for DC50; key = CN(C[C@H]1CC[C@H](n2cc(NC(=O)c3cnn4ccc(N5CCCC5)nc34)c(C(F)F)n2)CC1)C1CCN(c2cccc3c2n(C)c(=O)n3C2CCC(=O)NC2=O)CC1 (some centres unmarked) [I-278]
< 0.01 µM

Value lookup for DC50; key = Cc1cccc(C(=O)Nc2cc3cn([C@H]4CC[C@H](CN5CCC(c6cccc7c6n(C)c(=O)n7C6CCC(=O)NC6=O)C(F)(F)C5)CC4)nc3c(=O)n2C)n1 (some centres unmarked) [I-772]
> 0.2 µM

====

target: IRAK4 (Homo sapiens, UniProt Q9NWZ3); construct: Degradation of IRAK4 in OCI-LY10 was quantitatively measured using Meso Scale Discovery technology; endogenous in cells; host or cells: OCI-LY10; experiment: IRAK4 MSD Degradation in OCI-LY10; type: cell-based; details: OCI-LY10 cells, 24 hrs incubation, MSD; read-out: IRAK4 degradation in OCI-LY10 at 24 hrs: DC50
DC50 values, listed per item

Known DC50 results, listed for orientation:
Value lookup for DC50; key = O=C1CCC(c2ccc(C#CCN3CCN(C[C@H]4CC[C@@H](n5cc(NC(=O)c6cnn7ccc(N8C[C@@H]9C[C@H]8CO9)nc67)c(C(F)F)n5)CC4)CC3)cc2)C(=O)N1 (some centres unmarked)
> 200 nM

Value lookup for DC50; key = Cn1c(=O)n(C2CCC(=O)NC2=O)c2cccc(C#CCOC3CCN(C[C@H]4CC[C@H](n5cc(NC(=O)c6cnn7ccc(N8CCOC(F)(F)C8)nc67)c(C(F)F)n5)CC4)CC3)c21 (some centres unmarked)
> 200 nM

Value lookup for DC50; key = CN(C[C@H]1CC[C@H](n2cc(NC(=O)c3cnn4ccc(N5CCCCC5(C)C)nc34)c(C(F)F)n2)CC1)C1CCN(c2cccc3c2n(C)c(=O)n3C2CCC(=O)NC2=O)CC1(F)F (some centres unmarked)
> 200 nM

Value lookup for DC50; key = CN(C[C@H]1CC[C@H](n2cc(NC(=O)c3cnn4ccc(N5CCOC(C)(C)C5)nc34)c(C(F)F)n2)CC1)C1CCN(c2cccc3c2n(C)c(=O)n3C2CCC(=O)NC2=O)CC1(F)F (some centres unmarked)
10 to 100 nM

Now consider a different molecule.
Value lookup for DC50; key = Cn1c(=O)n(C2CCC(=O)NC2=O)c2cccc(C#CCN3CCN(C[C@H]4CC[C@H](n5cc(NC(=O)c6cnn7ccc(N8CC[C@]9(CCOC9)C8)nc67)c(C(F)F)n5)CC4)CC3)c21 (some centres unmarked)
> 200 nM
